Test system: H460 cells
Experiment: Cell growth inhibition assay (MTT), H460
Type: cell-based
Details: Homo sapiens, NCI-H460, 72 h drug exposure
Description: A major in vitro test is the cell growth inhibition test. In this test, the concentration of the test compound that causes a 50% inhibition of cell growth for a selected cell line. A low value is desirable in this test. This test is done according to a standard protocol (SCHULTZ, R. M., et al, Oncology Res. 5, 223–228 (1993)). […] The results are expressed as a percentage inhibition of ser-780 pRb phosphorylation in drug treated cells versus control cells treated with DMSO alone. […]
Measured property: IC50 (µM)
Dear colleague, please return just the value in µM, with no unit written.

stdin: Give measured IC50 for COc1ccc2c(c1)[nH]c1c3ccc4ccn(C)c4c3c3c(c21)C(=O)NC3=O (H460 cells).
stdout: 1.09

* * *

// pIC50 lookup, one value per entry
Target: Cyclin D1-cdk4 (Homo sapiens, UniProt P11802)
Sequence (P11802 whole entry): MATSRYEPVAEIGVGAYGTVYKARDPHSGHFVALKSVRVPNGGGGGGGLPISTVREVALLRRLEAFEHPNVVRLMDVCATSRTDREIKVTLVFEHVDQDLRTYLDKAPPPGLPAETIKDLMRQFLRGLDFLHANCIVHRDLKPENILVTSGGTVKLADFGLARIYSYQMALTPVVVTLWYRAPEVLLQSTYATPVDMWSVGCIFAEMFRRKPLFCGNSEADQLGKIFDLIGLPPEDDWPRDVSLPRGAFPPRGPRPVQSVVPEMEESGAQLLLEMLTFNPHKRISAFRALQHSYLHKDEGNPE
Sequence (P24385 whole entry partner): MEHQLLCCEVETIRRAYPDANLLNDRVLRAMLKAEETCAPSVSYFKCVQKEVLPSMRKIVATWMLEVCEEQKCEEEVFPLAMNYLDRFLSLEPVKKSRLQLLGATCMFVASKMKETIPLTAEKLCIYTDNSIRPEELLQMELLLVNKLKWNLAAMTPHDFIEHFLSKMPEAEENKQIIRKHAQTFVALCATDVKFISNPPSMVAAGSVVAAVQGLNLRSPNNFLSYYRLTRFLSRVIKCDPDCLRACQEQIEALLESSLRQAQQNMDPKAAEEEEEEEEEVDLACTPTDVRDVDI
Test: Cyclin D1-cdk4 kinase activity with the ING peptide as substrate
Assay type: biochemical
Details: Table 1; ING peptide substrate; read-out: RbING IC50
Description: The compounds of Formula I were tested using in vitro. An important in vitro test is the ability of the compound to inhibit the activity of the CDK4 enzyme. This test is done using Rb^ING and/or Rb^21 substrates as described in the literature (KONSTANTINIDIS, A. K., et al, J. Biol. Chem. 273, 26506–26515 (1998)). The test yields the micromolar concentration of the test compound, which produces a 50% inhibition of the CDK4 enzyme activity. […]
Structures can show the parent of a compound that is named as a salt.
Scale: pIC50 equals -log10([C]), with [C] in mol/L.

| Compound | Measured property | Reported result |
| --- | --- | --- |
| COc1ccc2c3c4c(c5c(ccc6ccn(C)c65)c3n(CCCNCCN(C)C)c2c1)C(=O)NC4=O [Example 55] | pIC50 | 7.38 |
| CN1CCN(CCc2cccc3c2[nH]c2c4ccc5ccn(C)c5c4c4c(c32)C(=O)NC4=O)CC1 | pIC50 | 7.65 |
| Cn1ccc2ccc3c4[nH]c5c(CCN6CCCCC6)cccc5c4c4c(c3c21)C(=O)NC4=O | pIC50 | 7.11 |
| CN1CCN(CCCc2cccc3c2[nH]c2c4ccc5ccn(C)c5c4c4c(c32)C(=O)NC4=O)CC1 | pIC50 | 7.12 |
| COc1ccc2c3c4c(c5c(ccc6ccn(C)c65)c3n(CCN3CCC(C(N)=O)CC3)c2c1)C(=O)NC4=O | pIC50 | 7.08 |
| COC(=O)[C@H](C)NCCCn1c2cc(OC)ccc2c2c3c(c4c(ccc5ccn(C)c54)c21)C(=O)NC3=O | pIC50 | 6.92 |

stdin: Kindly indicate its recorded pIC50. Item: COc1ccc2c(c1)[nH]c1c3ccc4ccn(C)c4c3c3c(c21)C(=O)NC3=O
stdout: 7.37

stdin: Kindly indicate its recorded pIC50. Item: COc1ccc2c3c4c(c5c(ccc6ccn(C)c65)c3n(CCCNCCN(C)C)c2c1)C(=O)NC4=O [Example 56, dihydrochloride]
stdout: 7.00

* * *

// IC50 lookup, one value per entry
biological target: Cyclin D1-cdk4 (Homo sapiens, UniProt P11802); test: Cyclin D1-cdk4 kinase activity with the Rb21 protein as substrate; type: biochemical; settings: Table 1; Rb21 protein substrate; read-out: Rb21 IC50
Where a name gives a salt, the structure may show the parent alone.
Dear colleague, please return just the value in µM, with no unit written.

Worked set:
| Compound | IC50 [µM] |
| --- | --- |
| COC(=O)[C@H](C)NCCCn1c2cc(OC)ccc2c2c3c(c4c(ccc5ccn(C)c54)c21)C(=O)NC3=O | 0.0451 |
| COc1ccc2c3c4c(c5c(ccc6ccn(C)c65)c3n(CCCNCCN(C)C)c2c1)C(=O)NC4=O [Example 56, dihydrochloride] | 0.0177 |
| Cn1ccc2ccc3c4[nH]c5c(CCN6CCCCC6)cccc5c4c4c(c3c21)C(=O)NC4=O | 0.0109 |

Consider now this further compound.
stdin: Kindly indicate its recorded IC50. Item: COc1ccc2c3c4c(c5c(ccc6ccn(C)c65)c3n(CCCO)c2c1)C(=O)NC4=O
stdout: 0.0116

* * *

target: Cyclin D1-cdk4 (Homo sapiens); test: Cyclin D1-cdk4 kinase activity with the ING peptide as substrate; assay type: biochemical; conditions: Table 2; Rb^ING substrate; read-out: CDK4 Inhibition (IC50/μM) Rb^ING
Measured property: IC50 (µM)
Dear colleague, please return just the value in µM, with no unit written.

stdin: Kindly indicate its recorded IC50. Item: COc1ccc2c(c1)[nH]c1c3ccc4ccn(C)c4c3c3c(c21)C(=O)NC3=O
stdout: 0.04

* * *

target: Cyclin D1-cdk4 (Homo sapiens); test: Cyclin D1-cdk4 kinase activity with the Rb21 protein as substrate; format: biochemical; conditions: Table 1; Rb21 protein substrate; read-out: Rb21 IC50
pIC50: −log10 of the molar value.
pIC50 below 8 gives not met; pIC50 at or above it gives met.

| Molecule | Class |
| --- | --- |
| COc1ccc2c(c1)[nH]c1c3ccc4ccn(C)c4c3c3c(c21)C(=O)NC3=O | met |

stdin: Check the entry Cn1ccc2ccc3c4[nH]c5ccccc5c4c4c(c3c21)C(=O)NC4=O : does pIC50 equal or exceed 8?
stdout: not met

stdin: Check the entry COc1ccc2c3c4c(c5c(ccc6ccn(C)c65)c3n(CCCNCCN(C)C)c2c1)C(=O)NC4=O [Example 55] : does pIC50 equal or exceed 8?
stdout: not met

stdin: Check the entry CN1CCN(CCCc2cccc3c2[nH]c2c4ccc5ccn(C)c5c4c4c(c32)C(=O)NC4=O)CC1 : does pIC50 equal or exceed 8?
stdout: not met

stdin: Check the entry COc1ccc2c3c4c(c5c(ccc6ccn(C)c65)c3n(CCN3CCC(C(N)=O)CC3)c2c1)C(=O)NC4=O : does pIC50 equal or exceed 8?
stdout: not met
